Reference source: the METLIN SMRT retention time set (Domingo-Almenara et al. 2019)

- procedure.details: gradient 5% acetonitrile 3 min, to 50% in 2 min, to 85% in 15 min, held 3 min, 100 µL/min
- assay.context: column: Zorbax Extend-C18 2.1 x 50 mm; eluents: water / acetonitrile, 0.1% formic acid
measure.name: RP-LC retention time (s)
Give bare numbers, in s.

INSERT INTO measurements (compound, measure_name, quantitative_result) VALUES
  ('CCS(=O)(=O)Nc1ccc(-c2noc(COc3ccc(F)cc3)n2)cc1', 'RP-LC retention time', 931);

Batch: RP-LC retention time for all items listed.
1. Cn1nc(C(=O)N2CC(N(C3CCOCC3)S(C)(=O)=O)C2)c2ccccc21
2. COc1ccccc1-c1nc2nccc(-c3ccc(Br)s3)n2n1
3. COc1ccccc1CCNC(=O)CSc1ccc(-c2cccs2)nn1
4. O=C(CC1CCCC1)NCCC1CCN(C(=O)Nc2ccc(F)cc2F)CC1
5. O=S(=O)(NCC(O)(c1ccccc1)C(F)(F)F)c1ccc(F)c(Cl)c1 (centres undefined)

698
1020
802
812
922

* * *

- procedure.details: gradient 5% acetonitrile 3 min, to 50% in 2 min, to 85% in 15 min, held 3 min, 100 µL/min
- assay.context: column: Zorbax Extend-C18 2.1 x 50 mm; eluents: water / acetonitrile, 0.1% formic acid
Assign class by RP-LC retention time: not lower than 900 s means y; lower than 900 s means n.

Some solved entries appear below for comparison.
INSERT INTO results (compound, assigned_class) VALUES
  ('Cc1cc(OCC(=O)NCc2ccccc2Cl)nc(N2CCCC2)n1', 'n'),
  ('COc1ccc(-c2cc(N3CCC(NC(=O)c4ccc(Br)o4)CC3)n[nH]2)cc1', 'n'),
  ('Cc1nc(C)c(C(=O)Nc2ccc(F)cc2F)s1', 'n'),
  ('CCc1ccccc1NC(=O)c1nnn(-c2ccc3noc(-c4ccccc4)c3c2)c1C', 'y'),
  ('CCCN1CCN(C(=O)c2noc3c2CCCCC3)CC1', 'n'),
  ('COc1ccc(CCNC(=O)C2CCCN(c3ccc(-c4ccco4)nn3)C2)cc1OC (stereo not given)', 'n'),
  ('Cc1csc(-c2ccc(N3CCN(C(=O)c4ccc5c(c4)OCO5)CC3)nc2)n1', 'n');

API: the following record is the query input.
For this compound, is measured RP-LC retention time 900 s or higher? COCc1nnc(NC(=O)c2ccccc2OCc2nc(-c3ccc(C)cc3)no2)s1
y

* * *

- procedure.details: gradient 5% acetonitrile 3 min, to 50% in 2 min, to 85% in 15 min, held 3 min, 100 µL/min
- assay.context: column: Zorbax Extend-C18 2.1 x 50 mm; eluents: water / acetonitrile, 0.1% formic acid
Assign class by RP-LC retention time: not lower than 700 s means t; lower than 700 s means f.

Some solved entries appear below for comparison.
INSERT INTO measurements (molecule, assigned_class) VALUES
  ('CCOc1ccccc1NC(=O)Cn1c(=O)n(-c2ccc(F)cc2)c(=O)c2c1cc(C)n2C', 't'),
  ('O=C(NCCCn1c(C(F)(F)F)nc2cccnc21)Nc1ccccc1Br', 't'),
  ('CC1Oc2ccc(-c3csc(NC(=O)c4ccc(F)cc4)n3)cc2N(C)C1=O (stereo not given)', 't'),
  ('Cc1nc(-c2noc(-c3ccc(F)cc3)n2)cn1CC(=O)Nc1ccc(Cl)cc1', 't'),
  ('CC(C(=O)N1CCN(c2ccccn2)CC1)n1nc(-c2ccccc2)c2cc(Cl)ccc21 (stereo not given)', 't');

API: the following record is the query input.
For this molecule, is measured RP-LC retention time 700 s or higher? CC(C)n1cnc(S(=O)(=O)N2CCC(C(=O)Nc3ccccc3)CC2)c1
t

* * *

Field: RP-LC retention time. Provide a value for each of the molecules that follow.
- procedure.details: gradient 5% acetonitrile 3 min, to 50% in 2 min, to 85% in 15 min, held 3 min, 100 µL/min
- assay.context: column: Zorbax Extend-C18 2.1 x 50 mm; eluents: water / acetonitrile, 0.1% formic acid
Answer by giving the amount and then stating its unit.

// known answers, use as guide
INSERT INTO results (record_smiles, result) VALUES
  ('O=C1NCN(c2ccccc2)C12CCN(CCCC(c1ccc(F)cc1)c1ccc(F)cc1)CC2', '892 s'),
  ('Cc1ccc(C)c2c(=O)c3c([nH]c12)CCN(CC(=O)Nc1ccc(F)cc1F)C3', '648 s'),
  ('COc1ccc(N2CCN(C(=O)Cn3nc4nc(N5CCCC5)ccn4c3=O)CC2)cc1', '639 s');

Please report the recorded RP-LC retention time for Cc1ccc(C)c(-n2ccn(Cc3nc(-c4ccc(C(C)(C)C)cc4)no3)c(=O)c2=O)c1 .
1130 s

* * *

Field: RP-LC retention time. Provide a value for each of the compounds that follow.
- procedure.details: gradient 5% acetonitrile 3 min, to 50% in 2 min, to 85% in 15 min, held 3 min, 100 µL/min
- assay.context: column: Zorbax Extend-C18 2.1 x 50 mm; eluents: water / acetonitrile, 0.1% formic acid
Give bare numbers, in s.

INSERT INTO results (compound, measure_name, quantitative_result) VALUES
  ('CN(C)CCNC(=O)c1ccc2c(c1)nnn2Cc1ccccc1', 'RP-LC retention time', 567);

Batch: RP-LC retention time for all items listed.
1. Cc1ccc(-n2cccc2CC(=O)NCc2ccc(N3CCOCC3)cc2)cc1
2. O=C(CNC(=O)c1c[nH]c2ccccc12)NCCC1=CCCCC1
3. O=C(N[C@H]1C[C@@H]2C[C@H]1N(C(=O)c1cccc(C(F)(F)F)c1)C2)c1cccs1
4. NC(=O)c1cc(-c2ccccc2)n[nH]1
5. CN1c2ccc(F)cc2C(=O)NC12CCN(C(=O)Cc1ccccc1)CC2
6. CN(C)c1nc(N)c(C(=O)N=C(N)N)nc1Cl

1. 877
2. 710
3. 839
4. 623
5. 764
6. 661

* * *

- procedure.details: gradient 5% acetonitrile 3 min, to 50% in 2 min, to 85% in 15 min, held 3 min, 100 µL/min
- assay.context: column: Zorbax Extend-C18 2.1 x 50 mm; eluents: water / acetonitrile, 0.1% formic acid
Sorting guide: entries reporting RP-LC retention time beneath 800 s go in the MET pile, the rest go in the NOT MET pile.

INSERT INTO measurements (record_smiles, assigned_class) VALUES
  ('NC(=O)c1ccsc1NC(=O)c1ccc(S(=O)(=O)N2CCc3ccccc3C2)cc1', 'NOT MET'),
  ('CCNC(=O)c1nc(Nc2ccc(CC)cc2)c2ccccc2n1', 'MET');

Please let me know if CC(C)c1cc(C(=O)Nc2cccc(F)c2)nc2ccnn12 shows RP-LC retention time below 800 s.
NOT MET

Please let me know if COCCn1cc(C(=O)NC2CCCC2)c2nn(-c3ccccc3)c(=O)c-2c1 shows RP-LC retention time below 800 s.
NOT MET

* * *

- procedure.details: gradient 5% acetonitrile 3 min, to 50% in 2 min, to 85% in 15 min, held 3 min, 100 µL/min
- assay.context: column: Zorbax Extend-C18 2.1 x 50 mm; eluents: water / acetonitrile, 0.1% formic acid
Field: RP-LC retention time. Provide a value for each of the molecules that follow.
Numbers only, in s.

// known answers, use as guide
INSERT INTO assay_data (molecule, unit_string, quantitative_result) VALUES
  ('COC[C@@H]1CN(c2cnccn2)C[C@H]1C(=O)NCC#N', 's', 546),
  ('CCCN1C(=O)COc2ccc(-c3noc(-c4cccc5[nH]ccc45)n3)cc21', 's', 1070),
  ('COc1ccc(NC(=O)Nc2c(-c3cccc(C)c3)nc3ccccn23)c(OC)c1', 's', 696),
  ('COCCCNC(=O)C1CCCN(c2nccnc2Sc2ccccc2)C1 (stereo unspecified)', 's', 849),
  ('Clc1ccccc1N1CCN(c2cc(-c3nc(-c4ccccc4)no3)c3ccccc3n2)CC1', 's', 1130),
  ('CCOCCCNC(=O)C1CCN(C2=NS(=O)(=O)C(c3ccc(Cl)cc3)=C2C)CC1', 's', 780),
  ('O=C(c1cccc2[nH]ccc12)N1CCCC1c1nc(-c2cccc(Cl)c2)no1 (stereo unspecified)', 's', 993),
  ('CCCn1c(CCNC(=O)c2c(F)cccc2F)nc2cccnc21', 's', 694),
  ('CC(C)NC(=O)c1ccc(OCC2CCN(C(=O)c3ccccc3C(F)(F)F)CC2)cc1', 's', 899),
  ('CCCc1cc(N2CCN(C(=O)COc3ccc(F)cc3)CC2)nc2nnc(C)n12', 's', 645);

Batch: RP-LC retention time for all items listed.
1. Cc1ccccc1Cn1cccc1CNC(=O)Nc1ccc2c(c1)OCO2
2. COc1cccc(CNC(=O)N2c3ccccc3CC2c2nc(C3CC3)no2)c1 (stereo unspecified)
3. O=C(c1ccccn1)N1CCCC(c2n[nH]c(C3CC3)n2)C1 (stereo unspecified)
4. O=C(Cn1nc2n(c1=O)CCCCC2)NCc1ccc2c(c1)OCO2
5. O=C(NCCc1ccccc1)N1CCCn2nc(-c3cccs3)cc2C1
6. CC(=O)N1CCC(C(=O)Nc2nc(C(C)(C)C)cs2)CC1
7. CC(Cc1ccco1)NC(=O)c1cccn(C)c1=O (stereo unspecified)
8. c1ccc(-c2nc(-c3ccc(-n4cccn4)nc3)no2)cc1

[931, 775, 542, 756, 805, 731, 649, 1200]

Batch: RP-LC retention time for all items listed.
1. CCc1ccc(S(=O)(=O)NCCc2sc(C)nc2C)s1
2. CCOC(=O)CNC(=O)N1CCN(c2nc3ccccc3n3cccc23)CC1
3. O=C(NC1CCN(c2cc(-c3ccccc3)[nH]n2)C1)c1cccc(Cl)c1 (stereo unspecified)

647
556
763
